- assayedTarget: Ecm22 (UniProt Q05958)
- Sequence: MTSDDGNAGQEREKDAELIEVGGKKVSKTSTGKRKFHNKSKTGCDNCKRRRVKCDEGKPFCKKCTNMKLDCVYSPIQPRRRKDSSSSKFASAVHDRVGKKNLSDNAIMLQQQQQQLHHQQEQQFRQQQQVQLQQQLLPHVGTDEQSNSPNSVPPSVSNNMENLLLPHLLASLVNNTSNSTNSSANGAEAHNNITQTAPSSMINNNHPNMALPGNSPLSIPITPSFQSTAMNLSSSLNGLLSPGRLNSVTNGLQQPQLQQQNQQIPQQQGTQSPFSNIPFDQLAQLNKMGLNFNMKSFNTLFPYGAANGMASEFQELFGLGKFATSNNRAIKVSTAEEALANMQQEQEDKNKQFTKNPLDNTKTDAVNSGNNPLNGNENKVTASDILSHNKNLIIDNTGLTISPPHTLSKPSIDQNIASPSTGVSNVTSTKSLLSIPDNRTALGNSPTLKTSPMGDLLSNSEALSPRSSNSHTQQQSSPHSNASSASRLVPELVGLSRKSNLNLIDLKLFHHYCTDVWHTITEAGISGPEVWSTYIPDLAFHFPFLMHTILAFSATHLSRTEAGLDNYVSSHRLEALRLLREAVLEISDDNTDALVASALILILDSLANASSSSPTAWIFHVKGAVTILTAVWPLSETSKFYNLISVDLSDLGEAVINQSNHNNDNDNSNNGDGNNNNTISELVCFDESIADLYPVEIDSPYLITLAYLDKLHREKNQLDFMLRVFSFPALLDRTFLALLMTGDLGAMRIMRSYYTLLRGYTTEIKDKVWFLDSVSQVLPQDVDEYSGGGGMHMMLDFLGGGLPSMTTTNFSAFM
- assayProtocol: PBM E-score (8-mer binding enrichment) (E-score (-0.5 to 0.5)); higher = stronger / more preferred TF binding
- conditionSummary: protein concentration: 200 nM; construct: GST-full length
In all, about 33,000 sequences were measured (“E-score (-0.5 to 0.5)”: median about -0.041, highest 2% from about 0.37 on). The list comes from a sample in which the highest values are over-represented; it also holds close analogues and randomly drawn sequences.

| seqString | PBM E-score |
| --- | --- |
| GCCTCGAA | 0.0731 |
| GCCTCGTA | 0.481 |
| GAACGATA | 0.416 |
| CCCTCGGA | 0.211 |
| ACAACTCC | -0.151 |
| TTACGCAA | 0.115 |
| GCCTCGGA | 0.175 |
| CTTGTGGC | -0.239 |
| AATCTTTA | -0.0885 |
| GCCGTTGA | -0.138 |
| TAGGGAAA | -0.0897 |
| AAGTTCGT | 0.319 |
| TCCAGGGA | -0.173 |
| CTTTCTCA | 0.00463 |
| GCGAACAC | 0.0536 |
| GGAAACAC | 0.0703 |
| CATGAAAA | 0.00915 |
| GGCATTAC | -0.132 |
| CAACGATA | 0.263 |
| GCCGTTTA | 0.421 |
| AACCCAGC | -0.207 |
| GGACGATA | -0.213 |

Measured values drawn from the supplement of paper PMC3334620 for this set.
